Tested on: IL-6 in THP-1 cells
Assay: Inhibition of IL-6 in LPS-stimulated THP-1 human monocyte cells (HTRF)
Type: cell-based
Settings: LPS, IL-6 HTRF, at 10 μM, read-out: percent inhibition in brackets (given for EC50 >10 μM)
Class membership depends on inhibition at 10 µM alone; the intervals are bin 0 (below 20%), bin 1 (20% to below 40%), bin 2 (40% or more)

Cc1cnc(-c2ccc3[nH]nc(-c4nc5c(-c6cccc(F)c6)cncc5[nH]4)c3n2)s1
bin 0
O=C(CC1CCNCC1)Nc1cncc(-c2ccc3[nH]nc(-c4nc5c(-c6ccsc6)cncc5[nH]4)c3n2)c1
bin 2
CC(C)C(=O)Nc1cncc(-c2ccc3[nH]nc(-c4nc5c(N6CCN(C)CC6)cncc5[nH]4)c3n2)c1
bin 1
O=C(CC1CCNCC1)Nc1cncc(-c2ccc3[nH]nc(-c4nc5c(-c6ccccn6)cncc5[nH]4)c3n2)c1
bin 1

stdin: Please indicate the class for `CN(C)CCNc1cc(F)cc(-c2cncc3[nH]c(-c4n[nH]c5ccc(-c6cncc(CNCC7CCCC7)c6)nc45)nc23)c1` based on its inhibition at 10 µM.
stdout: bin 2

stdin: Please indicate the class for `Cc1ccc(-c2cncc3[nH]c(-c4n[nH]c5ccc(C6=CCNCC6)nc45)nc23)s1` based on its inhibition at 10 µM.
stdout: bin 1

stdin: Please indicate the class for `COc1cccc(-c2cncc3[nH]c(-c4n[nH]c5ccc(-c6cncc(NC(=O)C7CCCCC7)c6)nc45)nc23)c1` based on its inhibition at 10 µM.
stdout: bin 1

stdin: Please indicate the class for `CS(=O)(=O)NCc1cc(F)cc(-c2cncc3[nH]c(-c4n[nH]c5ccc(-c6cncc(NC(=O)c7ccccc7)c6)nc45)nc23)c1` based on its inhibition at 10 µM.
stdout: bin 0

stdin: Please indicate the class for `O=C(Nc1cncc(-c2ccc3[nH]nc(-c4nc5c(-c6ccc(Cl)s6)cncc5[nH]4)c3n2)c1)C1CCC1` based on its inhibition at 10 µM.
stdout: bin 1

stdin: Please indicate the class for `Cc1cn(-c2cncc3[nH]c(-c4n[nH]c5ccc(C6=CCNCC6)nc45)nc23)cn1` based on its inhibition at 10 µM.
stdout: bin 0

stdin: Please indicate the class for `CS(=O)(=O)NCc1cc(F)cc(-c2cncc3[nH]c(-c4n[nH]c5ccc(-c6cncc(NC(=O)CC7CCNCC7)c6)nc45)nc23)c1` based on its inhibition at 10 µM.
stdout: bin 1

stdin: Please indicate the class for `CN(C)CCOc1cncc(-c2ccc3[nH]nc(-c4nc5c(-c6cccs6)cncc5[nH]4)c3n2)c1` based on its inhibition at 10 µM.
stdout: bin 2
